pKd by entry:
Target: T1, 4Ig-B7H3 (human, UniProt Q5ZPR3 27-461, limits assumed)
T1 construct: also called 4Ig-B73H3
T1 sequence (looked up): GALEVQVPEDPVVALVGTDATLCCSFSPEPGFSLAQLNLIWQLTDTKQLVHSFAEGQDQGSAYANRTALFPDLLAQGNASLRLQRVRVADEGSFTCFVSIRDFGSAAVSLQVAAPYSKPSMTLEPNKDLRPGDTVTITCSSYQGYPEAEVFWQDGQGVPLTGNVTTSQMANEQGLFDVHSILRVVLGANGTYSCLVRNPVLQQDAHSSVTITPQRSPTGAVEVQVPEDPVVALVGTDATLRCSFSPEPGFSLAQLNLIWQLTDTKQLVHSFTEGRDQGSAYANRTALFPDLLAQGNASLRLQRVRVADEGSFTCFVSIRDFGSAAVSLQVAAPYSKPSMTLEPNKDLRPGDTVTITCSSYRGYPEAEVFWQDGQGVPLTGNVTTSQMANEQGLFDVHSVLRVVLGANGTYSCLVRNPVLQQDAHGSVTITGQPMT
Test: SPR (Biacore), scFv; antigen not given
# pKd = -log10(concentration in molar units)

Recorded results for 3 binders are shown here.
binder	pKd
hu8H9 5.1 scFv (scFv, not shown: FLAG and His tags) scFv: QVQLVQSGAEVVKPGASVKVSCKTSGYTFTNYDINWVRQRPGQGLEWIGWIFPGDDSTQYNEKFKGRVTMTTDTSTSTVYMELSSLRSEDTAVYFCARQTTGTWFAYWGQGTLVTVSSGGGGSGGGGSGGGGSEIVMTQSPATLSVSPGERVTLSCRASQSISDYLYWYQQKSHQAPRLLIKYASQSISGIPARFSGSGSGSEFTLTISSLQPEDFGVYYCQNGHSFPLTFGQGTKLELKR	8.77
hu8H9 3.1 scFv (scFv, not shown: FLAG and His tags) scFv: QVQLVQSGAEVVKPGASVKLSCKTSGYTFTNYDINWVRQRPGQGLEWIGWIFPGDDSTQYNEKFKGKATLTTDTSTSTAYMELSSLRSEDTAVYFCARQTTGTWFAYWGQGTLVTVSSGGGGSGGGGSGGGGSEIVMTQSPATLSVSPGERVTLSCRASQSISDYLYWYQQKSHESPRLLIKYASQSISGIPARFSGSGSGSEFTLTINSVEPEDVGVYYCQNGHSFPLTFGQGTKLELKR	9.04
hu8H9 4.1 scFv (scFv, not shown: FLAG and His tags) scFv: QVQLVQSGAEVVKPGASVKVSCKASGYTFTNYDINWVRQRPEQGLEWIGWIFPGDGSTQYNEKFKGRVTMTTDTSTSTVYMELSSLRSEDTAVYFCARQTTATWFAYWGQGTLVTVSSGGGGSGGGGSGGGGSEIVMTQSPATLSVSPGERVTLSCRASQSISDYLHWYQQKSHQAPRLLIKYASQSISGIPARFSGSGSGSEFTLTISSLQPEDFGVYYCQNGHSFPLTFGQGTKLELKR	7.34

# ---- query binder ----
Incoming: Name the recorded pKd of the item hu8H9 H3L3 scFv (scFv, also called parental hu8H9 H3L3; not shown: FLAG and His tags) scFv: QVQLVQSGAEVVKPGASVKLSCKASGYTFTNYDINWVRQRPEQGLEWIGWIFPGDGSTQYNEKFKGKATLTTDTSTSTAYMELSSLRSEDTAVYFCARQTTATWFAYWGQGTLVTVSSGGGGSGGGGSGGGGSEIVMTQSPATLSVSPGERVSLSCRASQSISDYLHWYQQKSHESPRLLIKYASQSISGIPARFSGSGSGSEFTLTINSVEPEDVGVYYCQNGHSFPLTFGQGTKLELKR in your answer.
Outgoing: 6.84
